These measurements were taken from patent US20260008783A1.

# target or test system: Follicle Stimulating Hormone Receptor (FSHR) (Homo sapiens, UniProt P23945)
# Construct: HA (N)
# Sequence (P23945 18-695): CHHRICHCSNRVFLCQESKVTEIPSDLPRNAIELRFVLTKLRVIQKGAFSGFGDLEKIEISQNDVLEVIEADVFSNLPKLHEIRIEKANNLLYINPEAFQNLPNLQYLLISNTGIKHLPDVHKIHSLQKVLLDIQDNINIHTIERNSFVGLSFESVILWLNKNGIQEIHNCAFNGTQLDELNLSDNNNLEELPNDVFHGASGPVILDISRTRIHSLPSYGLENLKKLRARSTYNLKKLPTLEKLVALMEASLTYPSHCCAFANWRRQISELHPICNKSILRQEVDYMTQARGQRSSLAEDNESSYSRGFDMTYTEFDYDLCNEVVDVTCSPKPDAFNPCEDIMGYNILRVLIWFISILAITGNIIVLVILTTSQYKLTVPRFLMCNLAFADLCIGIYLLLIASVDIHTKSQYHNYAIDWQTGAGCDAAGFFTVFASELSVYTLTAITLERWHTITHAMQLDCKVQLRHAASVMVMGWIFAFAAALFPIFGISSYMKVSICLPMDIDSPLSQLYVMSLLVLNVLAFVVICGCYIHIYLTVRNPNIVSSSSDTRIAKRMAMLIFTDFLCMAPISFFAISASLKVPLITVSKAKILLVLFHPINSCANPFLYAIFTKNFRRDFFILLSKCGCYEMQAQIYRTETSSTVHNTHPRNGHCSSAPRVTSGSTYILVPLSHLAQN
# experiment description: HTRF cAMP agonist assay, FSHR, transiently transfected CHO-K1 cells
# measurement conditions: CHO-K1 cells transiently expressing human FSHR, read-out: IC50 FSHR LANCE CAMP
property measured: IC50 (µM)
Provide only the numeric value, understood in µM.

### Prompt Give IC50 only, for COc1cc2c(cc1-c1cncc(C(N)=O)c1)-c1c(c(C(=O)N3CCCN(C)CC3)nn1-c1cc(Cl)cc(Cl)c1)CC2 , using Follicle Stimulating Hormone Receptor (FSHR) (Homo sapiens, UniProt P23945) data.
### Response 0.115

### Prompt Provide the reported IC50 (system: Follicle Stimulating Hormone Receptor (FSHR) (Homo sapiens, UniProt P23945)) for CCN(CC)C(=O)c1nn(-c2cc(Cl)cc(Cl)c2)c2c1CCc1cc(OC)c(-c3cncc(C(N)=O)c3)cc1-2
### Response 0.00399

### Prompt Provide IC50, tested on Follicle Stimulating Hormone Receptor (FSHR) (Homo sapiens, UniProt P23945), for COc1cc2c(cc1-c1ccn(C)n1)-c1c(c(C(=O)N(C)C(C)(C)C)nn1-c1cc(Cl)cc(Cl)c1)CC2 .
### Response 0.18

### Prompt Give the observed IC50 of COc1cc2c(cc1-c1ccc(=N)[nH]c1)-c1c(c(C(=O)N3CCOCC3(C)C)nn1-c1cc(F)cc(F)c1)CC2 for Follicle Stimulating Hormone Receptor (FSHR) (Homo sapiens, UniProt P23945).
### Response 0.0211

### Prompt Provide the reported IC50 (system: Follicle Stimulating Hormone Receptor (FSHR) (Homo sapiens, UniProt P23945)) for COc1cc2c(cc1-c1cncc(C(N)=O)c1)-c1c(c(C(=O)N3[C@@H](C)CNC(=O)[C@@H]3C)nn1-c1cc(Cl)cc(Cl)c1)CC2
### Response 0.00814

### Prompt Look up and report IC50, with Follicle Stimulating Hormone Receptor (FSHR) (Homo sapiens, UniProt P23945) as system, for COc1cc2c(cc1-c1cncc(C(N)=O)c1)-c1c(c(C(=O)N3[C@H](C)COC[C@@H]3C)nn1-c1cc(Cl)cc(Cl)c1)CC2
### Response 0.0024

---

# target or test system: Follicle Stimulating Hormone Receptor (FSHR) (Homo sapiens)
# Construct: HA (N)
# experiment description: HTRF cAMP agonist assay, FSHR, transiently transfected CHO-K1 cells
# measurement conditions: CHO-K1 cells transiently expressing human FSHR, read-out: IC50 FSHR LANCE CAMP
# Procedure: Example 17. HTRF cAMP Agonist Assay Protocol (for FSHR, TSHR, LHCGR) […] Example FSHR Modulator compounds were diluted in assay buffer (PBS^+/+, 0.05% BSA Sigma-Aldrich A3059, 500 μM IBMX Sigma-Aldrich 15879) to 3.5× the final assay concentration. […] Plates were read on an Envision plate reader following PerkinElmer guidelines. Raw data for all assays was transmitted directly from plate readers into a database for processing. […]
property measured: pIC50
Note: pIC50 values are expressed as the negative base-10 logarithm of concentration in M.

### Prompt Tell me its pIC50 on Follicle Stimulating Hormone Receptor (FSHR) (Homo sapiens): COc1cc2c(cc1-c1cncc(C(N)=O)c1)-c1c(c(C(=O)N(C)C3CC3)nn1-c1cc(Cl)cc(Cl)c1)CC2
### Response 7.81

### Prompt Write down the reported pIC50 (system: Follicle Stimulating Hormone Receptor (FSHR) (Homo sapiens)) of COc1cc2c(cc1-c1cncc(C(N)=O)c1)-c1c(c(C(=O)N3CCCC34COC4)nn1-c1cc(Cl)cc(Cl)c1)CC2
### Response 7.52

### Prompt Fill in pIC50 for COc1cc2c(cc1-c1cncc(C(N)=O)c1)-c1c(c(C(=O)NC(C)(C)CO)nn1-c1cc(Cl)cc(Cl)c1)CC2 [Compound 8-52A] tested with Follicle Stimulating Hormone Receptor (FSHR) (Homo sapiens).
### Response 7.41

---

# target or test system: Follicle Stimulating Hormone Receptor (FSHR) (Homo sapiens, UniProt P23945)
# Construct: HA (N)
# experiment description: HTRF cAMP agonist assay, FSHR, transiently transfected CHO-K1 cells
# measurement conditions: CHO-K1 cells transiently expressing human FSHR, read-out: IC50 FSHR LANCE CAMP
Define the label as YES when IC50 is strictly less than 80 nM and as NO in all remaining cases.

### Prompt Would you kindly verify if IC50 of COc1cc2c(cc1-c1ccn(C)n1)-c1c(c(C(=O)N(C)C(C)(C)C)nn1-c1cc(Cl)cc(Cl)c1)SC2 [Compound 3-04] is strictly less than 80 nM?
### Response NO

### Prompt Confirm or reject: IC50 of COc1cc2c(cc1-c1cncc(C(N)=O)c1)-c1c(c(C(=O)N3CCNC(=O)C3(C)C)nn1-c1ccccn1)CC2 [Compound 15-01] lies strictly below 80 nM
### Response YES

### Prompt Regarding COc1cc2c(cc1-c1cncc(C(N)=O)c1)-c1c(c(C(=O)N3CCCC(=O)C3)nn1-c1cc(Cl)cc(Cl)c1)CC2 [Compound 8-83] , kindly confirm whether its IC50 is beneath 80 nM.
### Response YES

### Prompt Identify whether the compound COc1cc2c(cc1-c1cncc(C(N)=O)c1)-c1c(c(C(=O)N3CCOCC3(C)C)nn1-c1ncccn1)CC2 [Compound 10-08] records IC50 below 80 nM.
### Response NO

### Prompt Please let me know if COc1cc2c(cc1-c1cncc(C(N)=O)c1)-c1c(c(C(=O)N3CCOC3(C)C)nn1-c1cc(Cl)cc(Cl)c1)CC2 [Compound 8-51] shows IC50 below 80 nM.
### Response YES

### Prompt Confirm or reject: IC50 of CC1(C)COCCN1C(=O)c1nn(-c2cc(Cl)cc(Cl)c2)c2c1CCc1cc(O)c(-c3cncc(C(N)=O)c3)cc1-2 [Compound 9-04] lies strictly below 80 nM
### Response YES

### Prompt State whether 80 nM exceeds IC50 recorded for COc1cc2oc3c(C(=O)N4CCOCC4(C)C)nn(-c4ccsc4)c3c2cc1-c1cncc(C#N)c1 [Compound 4-03B] .
### Response NO

---

# target or test system: Follicle Stimulating Hormone Receptor (FSHR) (Homo sapiens)
# Construct: HA (N)
# experiment description: HTRF cAMP agonist assay, FSHR, transiently transfected CHO-K1 cells
# measurement conditions: CHO-K1 cells transiently expressing human FSHR, read-out: IC50 FSHR LANCE CAMP
pIC50: −log10 of the molar value.
Rule: true (1) for pIC50 not less than 8, false (0) for anything less.

### Prompt Determine whether measured pIC50 meets or exceeds 8 for COc1cc2c(cc1-c1cncc(C(N)=O)c1)-c1c(c(C(=O)N3CC4CCC3CN4C)nn1-c1cc(Cl)cc(Cl)c1)CC2 (stereo not shown)
### Response false (0)

### Prompt Could you tell me if the measured pIC50 of COc1cc2c(cc1-c1cncc(C(N)=O)c1)-c1c(c(C(=O)N3CCOCC3(C)C)nn1-c1ccsc1)OC2 reaches 8 or more?
### Response false (0)

### Prompt # check: pIC50 of COc1cc2c(cc1-c1cncc(C(N)=O)c1)-c1c(c(C(=O)N3CCNC[C@H]3C(F)(F)F)nn1-c1cc(Cl)cc(Cl)c1)CC2 is greater than or equal to 8
### Response true (1)

### Prompt Does the reported pIC50 for COc1ccc2c(c1)CCc1c(C(=O)N3CCOCC3(C)C)nn(-c3cc(Cl)cc(Cl)c3)c1-2 [Compound 9-08A] fall at or above the 8 mark?
### Response false (0)

### Prompt Form field: pIC50 at least 8? Entry: COc1cc2c(cc1-c1cncc(C(N)=O)c1)-c1c(c(C(=O)N3CCOCC3(C)C)nn1-c1cc(Cl)cc(Cl)c1)[S+]([O-])C2 (stereo not shown)
### Response false (0)

### Prompt Given COc1cc(C(N)=O)cc(-c2cc3c(cc2OC)CSc2c(C(=O)N(C)C(C)(C)C)nn(-c4cc(Cl)cc(Cl)c4)c2-3)n1 , state whether its pIC50 is at least 8.
### Response false (0)

### Prompt Assess whether reported pIC50 for COc1cc2c(cc1-c1cncc(C(N)=O)c1)-c1c(c(C(=O)N(C)C(C)(C)C)nn1-c1cc(Cl)cc(Cl)c1)[S+]([O-])C2 (stereo not shown) [Compound 3-07] sits at 8 or higher.
### Response false (0)

### Prompt I'd appreciate it if you could say whether COc1cc2c(cc1-c1cncc(C(N)=O)c1)-c1c(c(C(=O)N3CCNC(=O)C3(C)C)nn1CC(C)C)CC2 [Compound 14-03] has pIC50 at least equal to 8.
### Response false (0)

### Prompt Hi, just wondering whether COc1cc2c(cc1-c1cncc(C(N)=O)c1)-c1c(c(C(=O)N(C)C)nn1-c1cc(Cl)cc(Cl)c1)CC2 shows pIC50 of 8 or higher.
### Response false (0)

### Prompt Is pIC50 for COc1cc2ccc3c(C(=O)N4CCOCC4(C)C)nn(-c4cc(Cl)cc(Cl)c4)c3c2cc1-c1cncc(C(N)=O)c1 at or above 8?
### Response true (1)
